Test system: IL-1β production in PMA-differentiated THP-1 cells
Assay: IL-1β production in PMA-differentiated THP-1 cells stimulated with gramicidin (hTHP-1 assay, 2% fetal bovine serum; Procedures 1-3)
Format: cell-based, human
Settings: Homo sapiens, THP-1, hTHP-1 assay containing 2% fetal bovine serum; class symbols; read-out: hTHP-1 IC50 (Average IC50 of compounds in hTHP-1 assay)
Please go through the items and note down their IC50.

Input line: Requested field: IC50. Item: CC(C)(O)c1ccc(S(N)(=O)=NC(=O)Nc2c3c(c(F)c4c2CCC4)CCC3)c(Cl)c1 (stereo not drawn)
Output line: 1 to 5 µM

Input line: Requested field: IC50. Item: CC(C)(O)c1ncc([S@@](N)(=O)=NC(=O)Nc2c3c(cc4c2CC4)CCC3)s1 (single isomer, unassigned)
Output line: 1 to 5 µM

Input line: Requested field: IC50. Item: CC(C)(O)c1csc(S(N)(=O)=NC(=O)Nc2c3c(c(Cl)c4c2CCC4)CCC3)c1 (stereo not drawn)
Output line: 0.008 to 0.04 µM

Input line: Requested field: IC50. Item: Cc1nc(C(C)(C)O)sc1S(N)(=O)=NC(=O)Nc1c2c(cc3c1CCC3)CCC2 (stereo not drawn)
Output line: 0.008 to 0.04 µM

Input line: Requested field: IC50. Item: CC(C)c1cc(OC(F)F)cc(C(C)C)c1NC(=O)N=S(N)(=O)c1ncc(C(C)(C)O)s1 (stereo not drawn)
Output line: 0.04 to 0.2 µM

Input line: Requested field: IC50. Item: CC(C)c1ccc(F)c(C(C)C)c1NC(=O)N=S(N)(=O)c1cnc(C(C)(C)O)s1 (stereo not drawn)
Output line: 0.04 to 0.2 µM

Input line: Requested field: IC50. Item: CC(C)(O)c1ncc(S(N)(=O)=NC(=O)Nc2c3c(cc4c2OCC4)CCC3)s1 (stereo not drawn)
Output line: 0.04 to 0.2 µM

Input line: Requested field: IC50. Item: Cc1cc(S(N)(=O)=NC(=O)Nc2c3c(cc4c2CCC4)CCC3)ccc1C(C)(C)O (stereo not drawn)
Output line: 0.2 to 1 µM

Input line: Requested field: IC50. Item: CN(C(=O)N=S(N)(=O)c1cnc(C(C)(C)O)s1)c1c2c(cc3c1CCC3)CCC2 (stereo not drawn)
Output line: 5 to 30 µM
